molecular target: GANAB (Homo sapiens, UniProt Q14697); construct: endogenous enzyme in HEK293T cells (GBA2-expressing line); beta subunit not mentioned; test: intact cells treated, residual activity in lysate with 4MU-alpha-D-glucopyranoside; type: cell-based; conditions: 24 h treatment of intact HEK293T cells; assay pH 7.0; read-out: apparent IC50
Sequence (Q14697 29-944): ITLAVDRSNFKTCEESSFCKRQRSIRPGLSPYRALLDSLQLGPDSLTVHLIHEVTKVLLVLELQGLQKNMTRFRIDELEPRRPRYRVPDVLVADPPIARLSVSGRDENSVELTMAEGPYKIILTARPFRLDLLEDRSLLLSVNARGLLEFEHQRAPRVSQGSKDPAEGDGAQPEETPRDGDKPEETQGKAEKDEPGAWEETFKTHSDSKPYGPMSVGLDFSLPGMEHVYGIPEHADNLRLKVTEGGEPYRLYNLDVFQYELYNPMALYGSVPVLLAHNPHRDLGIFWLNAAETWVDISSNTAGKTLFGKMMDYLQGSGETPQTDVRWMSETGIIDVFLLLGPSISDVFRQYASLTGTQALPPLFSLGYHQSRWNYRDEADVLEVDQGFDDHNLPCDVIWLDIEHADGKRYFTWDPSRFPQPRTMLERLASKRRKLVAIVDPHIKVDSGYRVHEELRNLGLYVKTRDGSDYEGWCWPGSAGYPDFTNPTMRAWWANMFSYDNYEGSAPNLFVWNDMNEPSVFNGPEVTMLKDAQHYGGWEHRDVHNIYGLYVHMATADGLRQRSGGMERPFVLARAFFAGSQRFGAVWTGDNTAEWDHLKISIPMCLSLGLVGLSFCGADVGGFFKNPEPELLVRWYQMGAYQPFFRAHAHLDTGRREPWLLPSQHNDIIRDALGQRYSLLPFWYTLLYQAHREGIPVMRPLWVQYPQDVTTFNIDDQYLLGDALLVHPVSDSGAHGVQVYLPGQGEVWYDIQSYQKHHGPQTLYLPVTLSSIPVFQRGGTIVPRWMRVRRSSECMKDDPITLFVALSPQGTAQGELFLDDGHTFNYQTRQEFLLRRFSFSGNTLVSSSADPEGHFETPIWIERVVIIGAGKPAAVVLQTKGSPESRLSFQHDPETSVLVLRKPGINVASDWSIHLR
Result type: IC50

>>> measured("OC[C@@H]1[C@@H](O)[C@H](O)[C@@H](O)[C@@H]2O[C@H]12")
"> 10 µM"

====

target: GUSB (lysosomal beta-glucuronidase) (Homo sapiens); construct: endogenous enzyme in HEK293T cells (GBA2-expressing line); assay: intact cells treated, residual activity in lysate with 4MU-beta-D-glucuronide; type: cell-based; conditions: covalent; 24 h treatment of intact HEK293T cells; assay pH 5.0; read-out: CBE / Enz. assay
Result type: IC50 (µM)

>>> measured("OC1C(O)C(O)C2OC2C1O (stereo not shown) [compound 1, conduritol B epoxide]")
607

====

target: GANAB (Homo sapiens, UniProt Q14697); construct: endogenous enzyme in HEK293T cells (GBA2-expressing line); beta subunit not mentioned; assay: intact cells treated, residual activity in lysate with 4MU-alpha-D-glucopyranoside; format: cell-based; conditions: covalent; 24 h treatment of intact HEK293T cells; assay pH 7.0; read-out: CBE / Enz. assay
pIC50: −log10 of the molar value.
Result type: pIC50

>>> measured("OC1C(O)C(O)C2OC2C1O (stereo not shown) [compound 1, conduritol B epoxide]")
2.80

====

Molecular target: GUSB (lysosomal beta-glucuronidase) (Homo sapiens, UniProt P08236)
Construct: endogenous enzyme in HEK293T cells (GBA2-expressing line)
Sequence (P08236 23-651): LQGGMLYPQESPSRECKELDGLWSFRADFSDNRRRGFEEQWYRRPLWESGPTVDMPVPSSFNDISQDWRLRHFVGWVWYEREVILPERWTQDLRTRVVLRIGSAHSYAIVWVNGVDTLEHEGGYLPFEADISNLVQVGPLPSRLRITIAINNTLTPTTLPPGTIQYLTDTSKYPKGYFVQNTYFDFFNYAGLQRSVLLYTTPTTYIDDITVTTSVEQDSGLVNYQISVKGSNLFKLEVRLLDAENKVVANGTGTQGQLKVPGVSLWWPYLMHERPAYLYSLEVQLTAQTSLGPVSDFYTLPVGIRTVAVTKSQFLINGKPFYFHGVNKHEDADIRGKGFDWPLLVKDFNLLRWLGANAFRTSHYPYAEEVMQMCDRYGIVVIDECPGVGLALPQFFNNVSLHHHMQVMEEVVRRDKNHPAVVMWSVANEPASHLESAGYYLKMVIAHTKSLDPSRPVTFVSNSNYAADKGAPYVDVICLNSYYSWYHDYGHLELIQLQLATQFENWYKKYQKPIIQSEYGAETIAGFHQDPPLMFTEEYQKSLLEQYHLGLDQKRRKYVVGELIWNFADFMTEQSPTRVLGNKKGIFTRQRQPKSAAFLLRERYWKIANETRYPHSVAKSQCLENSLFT
Assay: intact cells treated, residual activity in lysate with 4MU-beta-D-glucuronide
Assay type: cell-based
Settings: 24 h treatment of intact HEK293T cells; assay pH 5.0; read-out: apparent IC50
Result type: IC50

>>> measured("OC[C@@H]1[C@@H](O)[C@H](O)[C@@H](O)[C@@H]2O[C@H]12 [compound 2, cyclophellitol]")
"> 10 µM"
